- test.system: GST-fused human V158 FcγRIIIa (extracellular region) (human) (UniProt P08637)
- Sequence (P08637 17-208 F176V): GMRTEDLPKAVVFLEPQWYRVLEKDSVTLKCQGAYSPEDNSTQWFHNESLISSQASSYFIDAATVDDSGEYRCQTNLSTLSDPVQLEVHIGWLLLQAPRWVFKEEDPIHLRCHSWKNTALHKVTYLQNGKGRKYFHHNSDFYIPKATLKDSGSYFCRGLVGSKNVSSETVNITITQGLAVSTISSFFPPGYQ
- assay.comment: AlphaScreen competition with biotin-WT AC10
Assignment: determine reported Fold IC50 relative to WT for the given binders.

// lookup Fold IC50 relative to WT for AC10 H2L3 (H2 AC10 VH, L3 AC10 VL) (antibody, from a related filing, IgG1, V domains shown) VH: QIQLVESGGGLVKPGGSLRLSCAASGYTFTDYYITWVRQAPGQGLEWMGWIYPGSGNTKYNEKFQGRVTMTVDTSTSTAYMELSSLRSEDTAVYFCANYGNYWFAYWGQGTLVTVSS VL: DIVLTQSPDSLAVSLGERATINCKASQSVDFDGDSYMNWYQQKPGQPPKVLIYAASNLESGIPARFSGSGSGTDFTLTINSLEAEDAATYYCQQSNEDPWTFGGGTKVEIK
0.48 fold

Item: AC10 H1L2 (H1 AC10 VH, L2 AC10 VL) (antibody, from a related filing, IgG1, V domains shown) VH: QIQLVQSGPEVKKPGASVKVSCKASGYTFTDYYITWVRQAPGQGLEWMGWIYPGSGNTKYNEKFQGRVTITVDTSASTAYMELSSLRSEDTAVYFCANYGNYWFAYWGQGTLVTVSS VL: DIVLTQSPSSLSASVGDRVTITCRASQSVDFDGDSYMNWYQQKPGQPPKVLIYAASNLESGIPARFSGSGSGTDFTLTISSLQPEDFATYYCQQSNEDPWTFGGGTKVEIK
0.26 fold

Also, AC10 H1L1 (H1 AC10 VH, L1 AC10 VL) (antibody, from a related filing, IgG1, V domains shown) VH: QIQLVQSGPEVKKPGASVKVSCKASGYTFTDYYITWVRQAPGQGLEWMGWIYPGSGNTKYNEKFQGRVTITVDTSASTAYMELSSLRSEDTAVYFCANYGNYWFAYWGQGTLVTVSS VL: DIVLTQSPATLSLSPGERATLSCRASQSVDFDGDSYMNWYQQKPGQPPKVLIYAASNLESGIPARFSGSGSGTDFTLTISSLQPEDFATYYCQQSNEDPWTFGGGTKVEIK please.
0.39 fold

Next binder: AC10 H1L3 (H1 AC10 VH, L3 AC10 VL) (antibody, from a related filing, IgG1, V domains shown) VH: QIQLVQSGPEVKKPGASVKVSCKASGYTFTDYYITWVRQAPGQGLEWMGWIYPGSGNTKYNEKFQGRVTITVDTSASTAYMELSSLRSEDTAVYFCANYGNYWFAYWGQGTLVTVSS VL: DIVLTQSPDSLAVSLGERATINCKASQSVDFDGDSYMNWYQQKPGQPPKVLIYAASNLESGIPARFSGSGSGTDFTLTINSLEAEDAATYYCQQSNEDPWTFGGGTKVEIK
0.49 fold
